The origin of these recorded values is patent US20240209076A1.

Listed here: items and their measured kon.
Measured on: T1, human IL-6 (human, UniProt P05231 30-212)
T1 construct: IL-6 flowed over captured antibodies
Experiment notes: SPR Biacore, supernatant Ab on Protein A chip, 37 C
Report as: number unit

anti-IL-6 antibody, heavy chain I51S, G66D / light chain M32L, M50D, N52S, M88Q (antibody, IgG1, V domains shown, Full IgG1 (Expi293); VL = variant III) VH: EVQLVESGGGLVQPGGSLRLSCAASGFTFSPFAMSWVRQAPGKGLEWVAKSSPGGSWTYYSDTVTDRFTFSLDTSKSTAYLQMNSLRAEDTAVYYCARQLWGYYALDIWGQGTLVTVSS VL: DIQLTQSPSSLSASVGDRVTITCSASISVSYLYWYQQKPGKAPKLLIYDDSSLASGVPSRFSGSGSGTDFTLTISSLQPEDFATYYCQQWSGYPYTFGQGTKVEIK ... 1.85e+06 M⁻¹ s⁻¹
anti-IL-6 antibody, heavy chain T65D, G66D / light chain M32L, M50D, N52S, M88Q (antibody, IgG1, V domains shown, Full IgG1 (Expi293); VL = variant III) VH: EVQLVESGGGLVQPGGSLRLSCAASGFTFSPFAMSWVRQAPGKGLEWVAKISPGGSWTYYSDTVDDRFTFSLDTSKSTAYLQMNSLRAEDTAVYYCARQLWGYYALDIWGQGTLVTVSS VL: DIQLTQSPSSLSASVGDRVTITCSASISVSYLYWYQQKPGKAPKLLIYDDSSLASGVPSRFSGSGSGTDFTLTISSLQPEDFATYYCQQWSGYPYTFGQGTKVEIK ... 1.03e+06 M⁻¹ s⁻¹

Turning now to a further binder:
-- ask # lookup: kon of anti-IL-6 antibody, heavy chain S35E, G66D / light chain M32L, M50D, N52S, M88Q (antibody, IgG1, V domains shown, Full IgG1 (Expi293); VL = variant III) VH: EVQLVESGGGLVQPGGSLRLSCAASGFTFSPFAMEWVRQAPGKGLEWVAKISPGGSWTYYSDTVTDRFTFSLDTSKSTAYLQMNSLRAEDTAVYYCARQLWGYYALDIWGQGTLVTVSS VL: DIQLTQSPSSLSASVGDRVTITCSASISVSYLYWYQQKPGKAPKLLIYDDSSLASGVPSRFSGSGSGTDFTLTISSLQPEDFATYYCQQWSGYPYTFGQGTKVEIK
-- reply 2.18e+06 M⁻¹ s⁻¹
